TEST: Phase I trial of oral PCLX-001: plasma pharmacokinetics, noncompartmental analysis (Phoenix WinNonlin 8.3)
Assay type: in vivo, human
ASSAY_CONTEXT: human, plasma, po, 40 mg, Table 7; Patient 115-002-005; Day 15; 40 mg QD oral; Pantoprazole Yes; read-out: Half-life (converted)
PROPERTY_LABEL: half-life (h)
Give just the numeric value; h need not be written.

Data request: // fetch half-life given entry Cc1c(NS(=O)(=O)c2c(Cl)cc(-c3ccnc(N4CCNCC4)c3)cc2Cl)c(CC(C)C)nn1C
Data returned: 5.54

---

TEST: Phase I trial of oral PCLX-001: plasma pharmacokinetics, noncompartmental analysis (Phoenix WinNonlin 8.3)
Type: in vivo, human
ASSAY_CONTEXT: human, plasma, po, 100 mg, Table 9; Patient 115-002-011; Day 15; 100 mg QD oral; Pantoprazole No; read-out: AUClast or AUCtau
PROPERTY_LABEL: AUC(0-t) (ng·h/mL)
Give just the numeric value; ng·h/mL need not be written.

Data request: // fetch AUC(0-t) given entry Cc1c(NS(=O)(=O)c2c(Cl)cc(-c3ccnc(N4CCNCC4)c3)cc2Cl)c(CC(C)C)nn1C
Data returned: 17900

---

TEST: Phase I trial of oral PCLX-001: plasma pharmacokinetics, noncompartmental analysis (Phoenix WinNonlin 8.3)
Format: in vivo, human
ASSAY_CONTEXT: human, plasma, po, 20 mg, Table 1A; Patient 115-002-004 (Patient 3); Day 1; 20 mg oral daily
PROPERTY_LABEL: Cmax
Express the reported value numerically, then name its unit.

Data request: // fetch Cmax given entry Cc1c(NS(=O)(=O)c2c(Cl)cc(-c3ccnc(N4CCNCC4)c3)cc2Cl)c(CC(C)C)nn1C [PCLX-001]
Data returned: 304 ng/mL

---

TEST: Phase I trial of oral PCLX-001: plasma pharmacokinetics, noncompartmental analysis (Phoenix WinNonlin 8.3)
Type: in vivo, human
ASSAY_CONTEXT: human, plasma, po, 20 mg, Table 1A; Patient 115-002-001 (Patient 1); Day 1; 20 mg oral daily; read-out: Tmax
PROPERTY_LABEL: Tmax (h)
Give just the numeric value; h need not be written.

Data request: // fetch Tmax given entry Cc1c(NS(=O)(=O)c2c(Cl)cc(-c3ccnc(N4CCNCC4)c3)cc2Cl)c(CC(C)C)nn1C [PCLX-001]
Data returned: 1

---

TEST: Phase I trial of oral PCLX-001: plasma pharmacokinetics, noncompartmental analysis (Phoenix WinNonlin 8.3)
Format: in vivo, human
ASSAY_CONTEXT: human, plasma, oral, 100 mg, Table 4; Mean (CV); not on Pantoprazole; 100 mg; N 2; Day 15
PROPERTY_LABEL: Cmax (ng/mL)
Give just the numeric value; ng/mL need not be written.

Data request: // fetch Cmax given entry Cc1c(NS(=O)(=O)c2c(Cl)cc(-c3ccnc(N4CCNCC4)c3)cc2Cl)c(CC(C)C)nn1C
Data returned: 1340

---

TEST: Phase I trial of oral PCLX-001: plasma pharmacokinetics, noncompartmental analysis (Phoenix WinNonlin 8.3)
Type: in vivo, human
ASSAY_CONTEXT: human, plasma, po, 70 mg, Table 8; Patient 115-024-001; Day 1; 70 mg QD oral; Pantoprazole No; read-out: AUClast or AUCtau
PROPERTY_LABEL: AUC(0-t) (ng·h/mL)
Give just the numeric value; ng·h/mL need not be written.

Data request: // fetch AUC(0-t) given entry Cc1c(NS(=O)(=O)c2c(Cl)cc(-c3ccnc(N4CCNCC4)c3)cc2Cl)c(CC(C)C)nn1C
Data returned: 9400
